biological target: Tyrosine-protein kinase JAK3 (Homo sapiens); assay: Inhibition of JAK3 (unknown origin) at 1 uM by biochemical assay relative to control
VALUE KIND: inhibition (%)

These solved cases illustrate the format of a correct answer.
>  <QUERY SMILES>
Cc1c(-c2ncnc3[nH]ccc23)nnn1Cc1ccc(C(C)(C)C)cc1

>  <NUMERIC READOUT>
3

$$$$
>  <QUERY SMILES>
Cc1c(-c2ncnc3[nH]ccc23)nnn1Cc1ccc(Cl)cc1

>  <NUMERIC READOUT>
36

$$$$
>  <QUERY SMILES>
Cc1c(-c2ncnc3[nH]ccc23)nnn1Cc1ccc(C#N)cc1

>  <NUMERIC READOUT>
7.3

$$$$
>  <QUERY SMILES>
Cc1c(-c2ncnc3[nH]ccc23)nnn1Cc1ccc(OC(F)(F)F)cc1

>  <NUMERIC READOUT>
-3.7

$$$$
>  <QUERY SMILES>
COc1ccc(Cn2nnc(-c3ncnc4[nH]ccc34)c2C)cc1

>  <NUMERIC READOUT>
5

$$$$
>  <QUERY SMILES>
Cc1c(-c2ncnc3[nH]ccc23)nnn1Cc1ccc(F)cc1

>  <NUMERIC READOUT>
14

$$$$

I: Cc1c(-c2ncnc3[nH]ccc23)nnn1Cc1ccc(I)cc1
II: Cc1c(-c2ncnc3[nH]ccc23)nnn1CCCc1ccc(I)cc1
Task: Between item I and item II , which reported inhibition is smaller? # reply format: chosen label
Output: I
(I: 20.3%, II: 52%)

----------
target: Tyrosine-protein kinase JAK1 (Homo sapiens); experiment: Inhibition of JAK1 (unknown origin) at 1 uM by biochemical assay relative to control
Sequence (P23458 whole entry): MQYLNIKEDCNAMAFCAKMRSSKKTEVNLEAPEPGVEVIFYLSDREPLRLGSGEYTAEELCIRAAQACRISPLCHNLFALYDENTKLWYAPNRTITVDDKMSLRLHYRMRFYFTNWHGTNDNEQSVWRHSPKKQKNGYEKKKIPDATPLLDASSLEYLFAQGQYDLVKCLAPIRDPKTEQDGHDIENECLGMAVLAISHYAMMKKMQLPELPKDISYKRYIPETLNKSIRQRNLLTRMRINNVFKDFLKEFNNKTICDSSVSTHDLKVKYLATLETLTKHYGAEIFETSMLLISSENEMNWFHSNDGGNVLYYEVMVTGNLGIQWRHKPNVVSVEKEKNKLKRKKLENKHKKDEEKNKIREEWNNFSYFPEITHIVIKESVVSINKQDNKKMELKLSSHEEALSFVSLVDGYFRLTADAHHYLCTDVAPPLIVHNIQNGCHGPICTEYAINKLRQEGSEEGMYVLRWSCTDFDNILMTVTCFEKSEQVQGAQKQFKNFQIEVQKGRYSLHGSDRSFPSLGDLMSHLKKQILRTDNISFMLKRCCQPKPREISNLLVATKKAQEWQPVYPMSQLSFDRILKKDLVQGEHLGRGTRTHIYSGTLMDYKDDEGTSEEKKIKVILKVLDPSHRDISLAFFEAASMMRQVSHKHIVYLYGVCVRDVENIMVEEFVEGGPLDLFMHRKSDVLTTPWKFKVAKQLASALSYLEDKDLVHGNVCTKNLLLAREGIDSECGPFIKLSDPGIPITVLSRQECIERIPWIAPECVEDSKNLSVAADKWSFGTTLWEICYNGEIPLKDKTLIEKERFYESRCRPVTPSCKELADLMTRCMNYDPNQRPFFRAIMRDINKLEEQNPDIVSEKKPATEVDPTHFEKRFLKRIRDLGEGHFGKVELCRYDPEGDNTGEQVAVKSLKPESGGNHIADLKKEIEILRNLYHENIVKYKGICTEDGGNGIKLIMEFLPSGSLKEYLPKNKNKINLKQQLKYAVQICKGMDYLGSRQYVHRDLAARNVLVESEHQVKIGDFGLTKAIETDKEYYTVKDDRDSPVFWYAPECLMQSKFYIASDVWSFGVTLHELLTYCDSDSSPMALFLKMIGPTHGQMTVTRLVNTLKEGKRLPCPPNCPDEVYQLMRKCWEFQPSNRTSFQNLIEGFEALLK
VALUE KIND: inhibition (%)

Reference set (2 entries):
>  <QUERY SMILES>
COc1ccc(Cn2nnc(-c3ncnc4[nH]ccc34)c2C)cc1

>  <inhibition / %>
51

$$$$
>  <QUERY SMILES>
Cc1ccc(CCn2nnc(-c3ncnc4[nH]ccc34)c2C)cc1

>  <inhibition / %>
12.3

$$$$

A: Cc1c(-c2ncnc3[nH]ccc23)nnn1CCCc1ccc(I)cc1
B: Cc1c(-c2ncnc3[nH]ccc23)nnn1CCc1ccc(C(F)(F)F)cc1
C: Cc1c(-c2ncnc3[nH]ccc23)nnn1CCc1ccccc1
D: Cc1c(-c2ncnc3[nH]ccc23)nnn1Cc1ccc(I)cc1
Task: Number of compounds to sort: 4. Sort criterion: inhibition, ascending. List the labels, following the order given in the request.
Output: C, B, A, D

----------
molecular target: Non-receptor tyrosine-protein kinase TYK2 (Homo sapiens); test: Inhibition of TYK2 (unknown origin) at 1 uM by biochemical assay relative to control
VALUE KIND: inhibition (%)

>  <QUERY SMILES>
Cc1c(-c2ncnc3[nH]ccc23)nnn1Cc1ccc(Cl)cc1

>  <inhibition, %>
67

$$$$

I: Cc1c(-c2ncnc3[nH]ccc23)nnn1Cc1ccc(Br)cc1
II: Cc1c(-c2ncnc3[nH]ccc23)nnn1Cc1ccc(S(C)(=O)=O)cc1
III: Cc1c(-c2ncnc3[nH]ccc23)nnn1Cc1ccc(I)cc1
Task: Please list these compounds in decreasing order of inhibition. Respond with the label ranking, as requested.
Output: I, III, II

----------
target: Tyrosine-protein kinase JAK3 (Homo sapiens); assay: Inhibition of JAK3 (unknown origin) at 1 uM by biochemical assay relative to control
VALUE KIND: inhibition (%)

>  <QUERY SMILES>
Cc1ccc(Cn2nnc(-c3ncnc4[nH]ccc34)c2C)cc1

>  <SYSTEM UNDER TEST>
Tyrosine-protein kinase JAK3 (Homo sapiens)

>  <UNITS>
%

>  <NUMERIC READOUT>
6

$$$$
>  <QUERY SMILES>
Cc1c(-c2ncnc3[nH]ccc23)nnn1Cc1cccc(OC(F)(F)F)c1

>  <SYSTEM UNDER TEST>
Tyrosine-protein kinase JAK3 (Homo sapiens)

>  <UNITS>
%

>  <NUMERIC READOUT>
0

$$$$
>  <QUERY SMILES>
Cc1c(-c2ncnc3[nH]ccc23)nnn1CCc1ccccc1

>  <SYSTEM UNDER TEST>
Tyrosine-protein kinase JAK3 (Homo sapiens)

>  <UNITS>
%

>  <NUMERIC READOUT>
13.3

$$$$
>  <QUERY SMILES>
Cc1c(-c2ncnc3[nH]ccc23)nnn1CCc1ccc(OC(F)(F)F)cc1

>  <SYSTEM UNDER TEST>
Tyrosine-protein kinase JAK3 (Homo sapiens)

>  <UNITS>
%

>  <NUMERIC READOUT>
20.3

$$$$

I: Cc1ccc(CCn2nnc(-c3ncnc4[nH]ccc34)c2C)cc1
II: Cc1c(-c2ncnc3[nH]ccc23)nnn1CCCc1ccccc1
Task: Compare the recorded inhibition of I and II ; state which is larger. Respond using the label that marks the chosen record.
Output: II

----------
Target: Tyrosine-protein kinase JAK3 (Homo sapiens) (UniProt P52333)
Sequence (whole entry): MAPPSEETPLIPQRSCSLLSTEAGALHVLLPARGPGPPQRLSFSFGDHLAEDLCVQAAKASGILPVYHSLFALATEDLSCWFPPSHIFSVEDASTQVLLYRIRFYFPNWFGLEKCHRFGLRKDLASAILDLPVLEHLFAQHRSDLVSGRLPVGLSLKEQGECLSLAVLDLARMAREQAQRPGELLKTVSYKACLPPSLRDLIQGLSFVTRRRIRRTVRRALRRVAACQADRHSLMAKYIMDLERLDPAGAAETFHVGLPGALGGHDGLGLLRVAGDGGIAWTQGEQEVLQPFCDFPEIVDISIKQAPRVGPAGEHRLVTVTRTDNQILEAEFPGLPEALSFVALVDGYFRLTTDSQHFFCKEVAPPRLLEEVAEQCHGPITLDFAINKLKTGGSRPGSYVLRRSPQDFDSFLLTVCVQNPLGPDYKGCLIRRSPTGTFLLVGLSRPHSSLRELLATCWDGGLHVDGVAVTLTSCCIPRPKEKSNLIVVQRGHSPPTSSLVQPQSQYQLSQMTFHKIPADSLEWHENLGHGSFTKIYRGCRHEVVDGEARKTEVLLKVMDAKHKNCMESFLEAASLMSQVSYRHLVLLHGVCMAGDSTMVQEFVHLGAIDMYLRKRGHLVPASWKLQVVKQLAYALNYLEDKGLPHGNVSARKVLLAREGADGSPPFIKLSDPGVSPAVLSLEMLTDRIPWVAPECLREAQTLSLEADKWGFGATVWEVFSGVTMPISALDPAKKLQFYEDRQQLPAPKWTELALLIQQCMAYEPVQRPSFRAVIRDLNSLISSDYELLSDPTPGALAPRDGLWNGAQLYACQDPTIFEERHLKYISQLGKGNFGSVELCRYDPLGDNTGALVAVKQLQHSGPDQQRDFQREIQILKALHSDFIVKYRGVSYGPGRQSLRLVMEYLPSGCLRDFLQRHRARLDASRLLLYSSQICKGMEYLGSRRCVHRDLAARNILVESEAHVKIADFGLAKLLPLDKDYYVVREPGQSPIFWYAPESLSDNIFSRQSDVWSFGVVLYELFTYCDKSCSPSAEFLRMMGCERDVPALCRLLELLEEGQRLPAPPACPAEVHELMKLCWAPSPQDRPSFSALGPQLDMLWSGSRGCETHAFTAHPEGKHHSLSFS
Experiment: Inhibition of JAK3 (unknown origin) at 1 uM by biochemical assay relative to control
VALUE KIND: inhibition (%)

>  <QUERY SMILES>
Cc1c(-c2ncnc3[nH]ccc23)nnn1Cc1ccccc1

>  <SYSTEM UNDER TEST>
Tyrosine-protein kinase JAK3 (Homo sapiens) (UniProt P52333)

>  <inhibition / %>
-9

$$$$

P: Cc1c(-c2ncnc3[nH]ccc23)nnn1Cc1ccc(Br)cc1
Q: Cc1c(-c2ncnc3[nH]ccc23)nnn1Cc1ccc(S(C)(=O)=O)cc1
Task: Two entries are listed, P and Q . Which one carries the higher inhibition? Label of pick, please.
Output: P
(P: 30%, Q: 20.6%)

----------
target: Tyrosine-protein kinase JAK2 (Homo sapiens, UniProt O60674); experiment: Inhibition of JAK2 (unknown origin) at 1 uM by biochemical assay relative to control
Sequence (O60674 whole entry): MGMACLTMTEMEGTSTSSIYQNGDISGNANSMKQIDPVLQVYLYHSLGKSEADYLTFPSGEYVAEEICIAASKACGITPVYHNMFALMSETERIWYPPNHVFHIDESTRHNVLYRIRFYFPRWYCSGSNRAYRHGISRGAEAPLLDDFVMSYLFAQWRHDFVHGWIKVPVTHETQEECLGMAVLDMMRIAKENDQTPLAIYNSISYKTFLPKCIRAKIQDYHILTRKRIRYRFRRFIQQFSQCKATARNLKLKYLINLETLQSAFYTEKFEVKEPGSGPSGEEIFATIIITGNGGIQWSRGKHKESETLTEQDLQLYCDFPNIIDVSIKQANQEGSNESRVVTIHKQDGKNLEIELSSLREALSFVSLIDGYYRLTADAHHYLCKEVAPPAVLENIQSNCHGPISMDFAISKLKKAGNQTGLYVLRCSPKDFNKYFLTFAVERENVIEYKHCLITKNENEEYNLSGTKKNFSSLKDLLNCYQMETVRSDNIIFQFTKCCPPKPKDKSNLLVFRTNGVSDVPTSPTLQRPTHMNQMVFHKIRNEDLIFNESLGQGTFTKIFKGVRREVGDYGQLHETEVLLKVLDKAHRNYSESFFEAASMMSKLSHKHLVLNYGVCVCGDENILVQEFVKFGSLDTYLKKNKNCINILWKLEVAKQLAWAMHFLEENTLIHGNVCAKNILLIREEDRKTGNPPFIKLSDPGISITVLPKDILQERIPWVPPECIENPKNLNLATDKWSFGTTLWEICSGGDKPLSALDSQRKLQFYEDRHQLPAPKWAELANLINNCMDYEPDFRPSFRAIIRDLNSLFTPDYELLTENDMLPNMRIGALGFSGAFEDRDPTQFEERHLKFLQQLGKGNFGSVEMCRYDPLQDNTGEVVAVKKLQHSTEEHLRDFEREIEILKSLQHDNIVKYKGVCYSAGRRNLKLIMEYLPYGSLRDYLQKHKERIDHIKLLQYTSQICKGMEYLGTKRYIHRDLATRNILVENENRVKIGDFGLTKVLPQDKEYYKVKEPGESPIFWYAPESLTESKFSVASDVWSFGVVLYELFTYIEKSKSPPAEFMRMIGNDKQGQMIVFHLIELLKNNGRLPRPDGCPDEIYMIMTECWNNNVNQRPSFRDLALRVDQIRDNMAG
VALUE KIND: inhibition (%)

>  <QUERY SMILES>
Cc1c(-c2ncnc3[nH]ccc23)nnn1Cc1ccc(Cl)cc1

>  <UNITS>
%

>  <inhibition>
50

$$$$

P: Cc1c(-c2ncnc3[nH]ccc23)nnn1Cc1ccc(C#N)cc1
Q: Cc1c(-c2ncnc3[nH]ccc23)nnn1CCCc1ccc(I)cc1
Task: Could you determine which record has the numerically smaller inhibition? Candidates: P and Q I would appreciate it if you answered with the label of your choice.
Output: P
(P: 15%, Q: 49.7%)

A: Cc1c(-c2ncnc3[nH]ccc23)nnn1Cc1ccc(C(C)(C)C)cc1
B: Cc1c(-c2ncnc3[nH]ccc23)nnn1Cc1ccc(S(C)(=O)=O)cc1
C: Cc1c(-c2ncnc3[nH]ccc23)nnn1CCc1ccc(OC(F)(F)F)cc1
Task: Rank entries according to their inhibition, from the largest number down. In your reply, arrange the labels in the requested order.
Output: A, B, C
(A: 15%, B: 8%, C: 3.7%)

a: Cc1c(-c2ncnc3[nH]ccc23)nnn1Cc1ccccc1OC(F)(F)F
b: Cc1c(-c2ncnc3[nH]ccc23)nnn1Cc1ccc(Br)cc1
c: Cc1c(-c2ncnc3[nH]ccc23)nnn1CCc1ccc(I)cc1
Task: Sort the compounds on inhibition; start with the lowest figure. Dear reader, please state the labels in the requested order.
Output: a, c, b

A: Cc1c(-c2ncnc3[nH]ccc23)nnn1Cc1ccccc1
B: Cc1c(-c2ncnc3[nH]ccc23)nnn1CCc1ccc(C(F)(F)F)cc1
Task: A or B : whose inhibition is greater? Write the label of whichever entry you select.
Output: A
(A: 14%, B: 8.7%)

a: Cc1c(-c2ncnc3[nH]ccc23)nnn1Cc1ccc(C(F)(F)F)cc1
b: Cc1c(-c2ncnc3[nH]ccc23)nnn1CCc1ccccc1
Task: Lab note: record which item had the higher inhibition, a or b . Give the chosen item's label as your response.
Output: a

a: Cc1c(-c2ncnc3[nH]ccc23)nnn1Cc1ccc(F)cc1
b: Cc1ccc(Cn2nnc(-c3ncnc4[nH]ccc34)c2C)cc1
c: COc1ccc(Cn2nnc(-c3ncnc4[nH]ccc34)c2C)cc1
Task: Highest inhibition first, then in falling order down to the smallest. Answer by listing the labels in the requested order.
Output: a, b, c
(a: 39%, b: 10%, c: 3%)

a: Cc1c(-c2ncnc3[nH]ccc23)nnn1CCCc1ccccc1
b: Cc1c(-c2ncnc3[nH]ccc23)nnn1Cc1ccc(I)cc1
Task: Lab note: check whether a or b has the lower measured inhibition. Identify your pick by its label.
Output: a
